assay: Cmax in patient with malignant lymphoma infected with Candida albicans FP633 at 2.6 mg/kg administered once daily after 12 days by HPLC; type: ADME, organism-based; parameters: dose 2.6 mg/kg; settings: human, in vivo
*1 amine or outer side, *2 acyl side, *3 side chain or, on linkers, in order; H or OH if unused. Where a SMILES comes first, the peptide text is derived from it. Bridges are numbered along the chain shown (N, C = ends). [ ]: non-standard residue; d: D form. The star is where a group is joined. hTyr(3S-OH,4S-OH,3'-OSO3H) = N[C@H](C(=O)O)[C@H](O)[C@@H](O)c1ccc(O)c(OS(=O)(=O)O)c1; Orn(4R-OH,5R-OH) = O=C([C@H](C[C@@H](O)[C@@H](O)N[*:3])N[*:1])[*:2]; Pro(3S-OH,4S-Me) = C[C@H]1CN[C@H](C(=O)O)[C@H]1O; X1 = CCCCCOc1ccc(-c2cc(-c3ccc(C(=O)*)cc3)no2)cc1; Gln(3R-OH) = NC(=O)C[C@@H](O)[C@H](N)C(=O)O; Hyp = O=C(O)[C@@H]1C[C@@H](O)CN1

{"molecule": "CCCCCOc1ccc(-c2cc(-c3ccc(C(=O)N[C@H]4C[C@@H](O)[C@@H](O)NC(=O)[C@@H]5[C@@H](O)[C@@H](C)CN5C(=O)[C@H]([C@H](O)CC(N)=O)NC(=O)[C@H]([C@H](O)[C@@H](O)c5ccc(O)c(OS(=O)(=O)O)c5)NC(=O)[C@@H]5C[C@@H](O)CN5C(=O)[C@H]([C@@H](C)O)NC4=O)cc3)no2)cc1 [MICAFUNGIN] (X1-[Orn(4R-OH,5R-OH)]T[Hyp][hTyr(3S-OH,4S-OH,3'-OSO3H)][Gln(3R-OH)][Pro(3S-OH,4S-Me)]; lactam 1-C)", "Cmax": "16400 ng/mL"}
